# TESTED_SYSTEM: Siglec-2 (CD22) (Homo sapiens, UniProt P20273)
# TEST_NAME: new affinity assay: displacement of biotinylated compound 155 from sialidase-treated Daudi cells, FACS with streptavidin-PE
# Assay type: binding
# Set-up: endogenous in cells; host or cells: Daudi (human B-cell lymphoma line)
# MEASUREMENT_CONDITIONS: Table II; rIP values set relative to compound 38; Daudi cells, displacement of compound 155
# Procedure: To determine the affinity of the compound of the formula (I), approximately 5×10^6 to 2×10^8 cells of the human B-cell lymphoma line “Daudi” were incubated with sialidase (A. ureafaciens) at 37° C. for 1 h (final concentration 0.1 unit/ml). […] Batches of 1-2×10^6 cells were transferred to sample vessels, and incubated on ice for 15 min with serial concentrations (10-fold dilutions, 1 mM to 1×10^−7 mM) of the substance under measurement (inhibitor). The reaction volume was 50 μl. […]
rIP values by entry
READOUT: rIP

MOLECULE	TESTED_SYSTEM	READOUT	MEAS_VALUE
CC(=O)N[C@H]1[C@H]([C@H](O)[C@H](O)CNC(=O)c2ccc(-c3ccccc3)cc2)O[C@@](OCCCSCCC(=O)NCCNC(=O)CCSCCCO[C@]2(C(=O)[O-])C[C@H](O)[C@@H](NC(C)=O)[C@H]([C@H](O)[C@H](O)CNC(=O)c3ccc(-c4ccccc4)cc3)O2)(C(=O)[O-])C[C@@H]1O.[Na+].[Na+] [Compound 46]	Siglec-2 (CD22) (Homo sapiens, UniProt P20273)	rIP	290
CC(=O)N[C@H]1[C@H]([C@H](O)[C@H](O)CNC(=O)c2ccc(-c3ccccc3)cc2)O[C@@](OCCCSCCC(=O)NCc2ccc(CNC(=O)CCSCCCO[C@]3(C(=O)[O-])C[C@H](O)[C@@H](NC(C)=O)[C@H]([C@H](O)[C@H](O)CNC(=O)c4ccc(-c5ccccc5)cc4)O3)cc2)(C(=O)[O-])C[C@@H]1O.[Na+].[Na+] [Compound 44]	Siglec-2 (CD22) (Homo sapiens, UniProt P20273)	rIP	177
CC(=O)N[C@H]1[C@H]([C@H](O)[C@H](O)CNc2c(NCc3ccccc3)c(=O)c2=O)O[C@@](OCCCSCCNC(=O)c2ccc(C(=O)NCCSCCCO[C@]3(C(=O)[O-])C[C@H](O)[C@@H](NC(C)=O)[C@H]([C@H](O)[C@H](O)CNc4c(NCc5ccccc5)c(=O)c4=O)O3)cc2)(C(=O)[O-])C[C@@H]1O.[Na+].[Na+] [Compound 134]	Siglec-2 (CD22) (Homo sapiens, UniProt P20273)	rIP	70

---

# TESTED_SYSTEM: Siglec-2 (CD22) (Homo sapiens)
# Sequence (P20273 20-847): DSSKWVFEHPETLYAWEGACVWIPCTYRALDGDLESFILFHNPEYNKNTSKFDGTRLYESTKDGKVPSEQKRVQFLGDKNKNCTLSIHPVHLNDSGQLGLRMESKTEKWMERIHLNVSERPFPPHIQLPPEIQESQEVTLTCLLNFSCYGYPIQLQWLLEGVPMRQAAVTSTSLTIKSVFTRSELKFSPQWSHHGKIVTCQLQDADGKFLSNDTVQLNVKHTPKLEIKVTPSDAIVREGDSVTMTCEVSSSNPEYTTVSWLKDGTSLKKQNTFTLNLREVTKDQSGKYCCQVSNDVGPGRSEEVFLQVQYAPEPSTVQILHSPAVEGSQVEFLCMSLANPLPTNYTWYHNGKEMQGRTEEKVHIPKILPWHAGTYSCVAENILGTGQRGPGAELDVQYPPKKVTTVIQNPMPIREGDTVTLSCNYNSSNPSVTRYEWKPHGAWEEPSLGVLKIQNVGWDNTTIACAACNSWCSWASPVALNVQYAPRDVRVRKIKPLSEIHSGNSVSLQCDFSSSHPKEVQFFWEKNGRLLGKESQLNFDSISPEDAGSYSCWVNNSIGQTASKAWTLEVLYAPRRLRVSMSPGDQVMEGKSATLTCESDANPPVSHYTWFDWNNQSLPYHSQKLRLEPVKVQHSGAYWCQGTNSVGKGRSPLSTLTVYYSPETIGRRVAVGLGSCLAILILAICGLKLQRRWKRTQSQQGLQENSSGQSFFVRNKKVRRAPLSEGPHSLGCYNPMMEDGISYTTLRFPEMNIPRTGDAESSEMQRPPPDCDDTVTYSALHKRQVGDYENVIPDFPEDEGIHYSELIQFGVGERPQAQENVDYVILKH
# TEST_NAME: new affinity assay: displacement of biotinylated compound 155 from sialidase-treated Daudi cells, FACS with streptavidin-PE
# Assay type: binding
# Parameters: endogenous in cells; host or cells: Daudi (human B-cell lymphoma line)
# MEASUREMENT_CONDITIONS: Table II; rIP values set relative to compound 38; Daudi cells, displacement of compound 155
READOUT: rIP

SMI	MEAS_VALUE
CC(=O)N[C@H]1[C@H]([C@H](O)[C@H](O)CNC(=O)c2ccc(-c3ccccc3)cc2)O[C@@](OCCCSCCNC(=O)C#CC(=O)NCCSCCCO[C@]2(C(=O)[O-])C[C@H](O)[C@@H](NC(C)=O)[C@H]([C@H](O)[C@H](O)CNC(=O)c3ccc(-c4ccccc4)cc3)O2)(C(=O)[O-])C[C@@H]1O.[Na+].[Na+]	4944
CC(=O)N[C@H]1[C@H]([C@H](O)[C@H](O)CNC(=O)c2ccc(-c3ccccc3)s2)O[C@@](OCCCSCCNC(=O)c2ccc(C(=O)NCCSCCCO[C@]3(C(=O)[O-])C[C@H](O)[C@@H](NC(C)=O)[C@H]([C@H](O)[C@H](O)CNC(=O)c4ccc(-c5ccccc5)s4)O3)cc2)(C(=O)[O-])C[C@@H]1O.[Na+].[Na+]	106
